// read-out IC50, gathered for Epidermal growth factor receptor (Homo sapiens) from published studies

Take a look at these entries with their results.
{"compound": "COc1cc(F)c(NC(=O)/C=C/CN(C)C)cc1Nc1ncc(Cl)c(Nc2ccc3ccccc3c2)n1", "IC50": "1060 nM"}
{"compound": "C=CC(=O)Nc1cc(Nc2ncc(Cl)c(Nc3ccc4ccccc4c3)n2)c(OC)cc1N1CCOCC1", "IC50": "> 100 nM"}
{"compound": "CC(C)(O)Cn1/c(=N/C(=O)c2ccnc(Oc3cccc(O)c3C=O)c2)[nH]c2ccc(CN3CCC(C(C)(C)O)CC3)cc21", "IC50": "10.9 nM"}

Requested read-out: IC50. Entry: Cc1ccnc(NC(=O)c2ccc(Oc3ccnc4[nH]nc(N[C@@H]5CCCN(C(=O)CCCN(C)C)C5)c34)cc2)c1
1000 to 10000 nM

Requested read-out: IC50. Entry: N#Cc1cccc(C(=O)NCc2ccc(-c3nn(C4CCCC4)c4ncnc(N)c34)cc2)c1
1000 to 10000 nM

Requested read-out: IC50. Entry: C=CC(=O)Nc1cc(-c2c(-c3ccc(N4CCN(C)CC4)cc3)[nH]c3ncc(Cl)c(C)c23)ccc1C
≤ 100 nM

Requested read-out: IC50. Entry: Fc1ccc(Nc2ncnc3nc(NCCCN4CCOCC4)sc23)cc1Cl
698 nM

Requested read-out: IC50. Entry: CN1CCN(Cc2ccc(Nc3nc4ncnc(Nc5ccc(Oc6ccccc6)cc5)c4s3)cc2)CC1
319 nM

Requested read-out: IC50. Entry: C=CC(=O)Nc1cc(-c2c(-c3ccc(N(C)CCN(C)C)cc3)[nH]c3ncc(C(=O)OC(C)C)cc23)cc(F)c1C
≤ 100 nM

Requested read-out: IC50. Entry: CC(C)c1nc(-c2cncc(NS(=O)(=O)c3c(F)cccc3F)c2)c(-c2ccnc(Nc3ccc(N4CCOCC4)nc3)n2)s1
> 1000 nM

Requested read-out: IC50. Entry: C=CC(=O)N1CCC(Nc2cc(Nc3ccc(Oc4ccccc4)cc3)ncn2)C1 (stereo not drawn)
10 to 100 nM

---

// read-out IC50, gathered for Epidermal growth factor receptor (Homo sapiens) from published studies

Take a look at these entries with their results.
{"compound": "COc1cc(N2CCC(N3CCN(C)CC3)CC2)ccc1Nc1ncc(C(F)(F)F)c(Nc2cccc3c2N(S(C)(=O)=O)CC3)n1", "IC50": "3.1 nM"}
{"compound": "COc1cc2ncnc(Nc3ccc(F)c(Cl)c3)c2cc1OCCCCC(=O)NO", "IC50": "< 100 nM"}
{"compound": "Cc1ccnc(NC(=O)c2ccc(-c3nn([C@H]4CC[C@H](NC(=O)/C=C/CN(C)C)CC4)c4ncnc(N)c34)cc2)c1", "IC50": "100 to 1000 nM"}

Next:
Requested read-out: IC50. Entry: CCOC(C)Oc1cc2ncnc(Nc3ccc(F)c(C#N)c3)c2c2c1OCCO2 (stereo not shown)
< 300 nM

---

// read-out pIC50, gathered for UniProt:P00533 from published studies
pIC50: −log10 of the molar value.
measured_parameter: pIC50

{"compound_structure_string": "Cn1ncc2c1OCCCOc1ccccc1/C=C/c1n[nH]c3ccc-2nc13", "measured_on": "UniProt:P00533", "pIC50": 6.26}
{"compound_structure_string": "COc1cc(F)c(NC(=O)/C=C/CN(C)C)cc1Nc1ncc(Br)c(Nc2ccc3ccccc3c2)n1", "measured_on": "UniProt:P00533", "pIC50": 5.45}
{"compound_structure_string": "CCOc1nn(CCO)c2c1/C=C/c1n[nH]c3ccc(cc13)-c1cnn(C)c1OC[C@H](CC)N(C)C2", "measured_on": "UniProt:P00533", "pIC50": 6.48}
{"compound_structure_string": "Clc1cccc(Nc2ncnc3nc(Nc4ccc(CN5CCOCC5)cc4)sc23)c1", "measured_on": "UniProt:P00533", "pIC50": 8.15}
{"compound_structure_string": "CN(Cc1ccc(Nc2nc3ncnc(Nc4ccc(F)c(Cl)c4)c3s2)cc1)C1CCCCC1", "measured_on": "UniProt:P00533", "pIC50": 7.88}

(A) CCCc1cc(Nc2ncc(Br)c(Nc3ccc(-c4cnn(C)c4)cc3P(C)(C)=O)n2)c(OC)cc1N1CCC(N2CCN(C)CC2)CC1
(B) CCc1cc(Nc2ncc(Cl)c(Nc3ccc(-c4cccc5ocnc45)cc3P(C)(C)=O)n2)c(OC)cc1N1CCC(N2CCN(C)CC2)CC1
(C) CCN1Cc2c(c(OC(C)C)nn2CC(C)=O)/C=C/c2n[nH]c3ccc(cc23)-c2cnn(C)c2O[C@@H](C)C1
(D) CCN1CCN(C2CCN(c3ccc(Nc4nc(Nc5ccccc5N(C)S(C)(=O)=O)c5cc[nH]c5n4)cc3F)CC2)CC1
Could you please sort these 4 entries by pIC50 from high to low? # the answer lists labels in the order requested
C, A, B, D
(C: 8.16, A: 7.85, B: 7.36, D: 5.35)
